system: SNB-19; assay: NCI tumour cell line growth inhibition, 48 h
The source made the active and inactive calls. No stated cut-off is given here; in the data, active = GI50 up to about 1.1 µM and inactive = higher.
Assignment: determine reported GI50 for the given compounds.

Worked set:
C/C(=C\c1ccccc1)C(=O)CCN1CCOCC1; > 44.9 µM (inactive)
O=C(O)c1cncc(C(=O)O)c1; > 100 µM (inactive)
C1=C2C3=[N+](CCCCC3)CC2Cc2ccsc21 (configuration not stated); 81.1 µM (inactive)
CCOC1=C2N=C(Cc3ccccc3F)N=C2C(=O)c2ccccc21; > 100 µM (inactive)
Nc1n[n+]([O-])c2cnccc2[n+]1[O-]; > 100 µM (inactive)
CCCCc1c2c(nc3c1CCC/C3=C\c1ccccc1)C(=O)C(CN(C)C)CC2 (configuration not stated); 18.3 µM (inactive)
N#CC1(CCCCl)CCCCC1; > 100 µM (inactive)
COc1cc(=O)n2c3ccccc3n(C)c2c1C#N; > 100 µM (inactive)
COc1ccc(/C=C/c2sc3ccccc3[n+]2CCCCI)cc1OC; > 10 µM (inactive)
CCOC(=O)/C=C(\C(=O)OCC)n1cnc2c(N)ncnc21; 16.1 µM (inactive)

Hey, can you go through the list below and give me GI50 for every item?
1. CC1CCCC2=C1C(c1ccc(Cl)cc1)n1c(s/c(=C\c3ccc(Cl)cc3)c1=O)=N2 (configuration not stated)
2. CCOC(=O)COc1ccc(/C=C/C(=O)c2ccc(OC)cc2)cc1
3. N#Cc1nc(-c2cccs2)oc1N
4. O=c1[nH]c2ccccc2c(=O)n1/N=C/c1ccc(O)cc1

Output:
["> 100 µM (inactive)", "41.8 µM (inactive)", "> 100 µM (inactive)", "36 µM (inactive)"]

---

test system: COLO 205; experiment: NCI tumour cell line growth inhibition, 48 h
Calls of active or inactive are those of the source. Cut-off read from the data, not from the text of the source: active = GI50 up to about 1.1 µM and inactive = higher.
Use one of these outcomes when replying: 1.0 (active), 0.0 (inactive)

Task: Hey, what did the test say about CCCCc1c2c(nc3c1CCC/C3=C\c1ccccc1)C(=O)C(CN(C)C)CC2 (stereo not given) ?
Output: 0.0

Task: Also N#CCCN(c1ccc(/C=N/c2cccc([N+](=O)[O-])c2)cc1)S(=O)(=O)c1ccccc1 ?
Output: 0.0

Task: Also O=C(COC(=O)c1cccc2c(=O)c3ccccc3[nH]c12)Nc1ccc(C(=O)O)cc1 ?
Output: 0.0

Task: Also C=C1C[C@@H](O)[C@@H](Br)C(C)(C)[C@]12CCC(C)(Br)C(Cl)C2 (stereo not given in full) ?
Output: 1.0

Task: Also COC12OC3(C4OC41)C(C(=O)O[C@H]3CO[Si](C)(C)C(C)(C)C)C2S(=O)(=O)c1ccccc1 (stereo not given in full) ?
Output: 0.0

Task: Also COc1cc2c(cc1O)C1CC(CC3CCCCN31)OC(=O)/C=C\c1ccc(O)c-2c1 (stereo not given) ?
Output: 0.0

Task: Also COC(=O)C1=C(O)C(C(=O)OC)[C@]2(O)[C@H](C(=O)OC)[C@H]1C[C@@H](c1ccc(OC)cc1)[C@H]2C(=O)OC (stereo not given in full) ?
Output: 0.0

Task: Also N#Cc1c(-c2cccc(Cl)c2)cc(-c2ccc(Cl)cc2)nc1N ?
Output: 0.0

Task: Also CCC1=CC(OCc2ccccc2)C(CCN(Cc2ccccc2)C(=O)OCc2ccccc2)C1 (stereo not given) ?
Output: 0.0

Task: Also CC(CN(C)C)C(=O)c1ccccc1C(=O)O (stereo not given) ?
Output: 0.0

Task: Also CCOC(=O)/C(=C\NCC(OCC)OCC)c1nc2ccccc2[nH]1 ?
Output: 0.0

Task: Also CC(C)NC(=O)OCc1c(COC(=O)NC(C)C)c(-c2cc[n+](COC(=O)C(C)(C)C)cc2)n2c1CCC2 ?
Output: 0.0

Task: Also CCOC(=O)C1(C(=O)OCC)C[C@]23OCCC(=O)[C@H]2[C@H]2C(=O)OC(C)(C)O[C@]23C1 ?
Output: 0.0

Task: Also COc1ccccc1/C=N/Nc1nnc2c3ccccc3c3ncccc3c2n1 ?
Output: 0.0

Recorded values, source ChEMBL document CHEMBL1201862.
